TEST SUMMARY: gradient 5% acetonitrile 3 min, to 50% in 2 min, to 85% in 15 min, held 3 min, 100 µL/min
STUDY CONDITIONS: column: Zorbax Extend-C18 2.1 x 50 mm; eluents: water / acetonitrile, 0.1% formic acid
Label Criterion met when RP-LC retention time >= 700 s; otherwise Criterion not met.

# COMPOUND, ASSIGNED LABEL
data = [
    ("COCC(=O)NC1CCC12CCN(S(=O)(=O)c1cn(C)cn1)CC2 (centres undefined)", "Criterion not met"),
]

## Input I'd appreciate it if you could say whether CC1Oc2ccc(-c3csc(NC(=O)COc4ccc(Cl)cc4)n3)cc2N(C)C1=O (centres undefined) has RP-LC retention time at least equal to 700 s.
## Output Criterion met

## Input I'd appreciate it if you could say whether COc1cc(NC(=O)CCSc2nc3c(=O)n(C)c(=O)n(C)c3n2C)c(OC)cc1Cl has RP-LC retention time at least equal to 700 s.
## Output Criterion met

## Input I'd appreciate it if you could say whether COc1cccc(NC(=O)Cn2nc3cc(C)nc(Nc4ccc(C)c(F)c4)n3c2=O)c1 has RP-LC retention time at least equal to 700 s.
## Output Criterion met

## Input I'd appreciate it if you could say whether Cc1ccc(-c2cc3n(n2)CCCN(C(=O)CCN2C(=O)NC(C)(C)C2=O)C3)cc1C has RP-LC retention time at least equal to 700 s.
## Output Criterion met

## Input I'd appreciate it if you could say whether CCc1nncn1C1CCN(S(=O)(=O)c2ccc(F)cc2)CC1 has RP-LC retention time at least equal to 700 s.
## Output Criterion not met

----------
TEST SUMMARY: gradient 5% acetonitrile 3 min, to 50% in 2 min, to 85% in 15 min, held 3 min, 100 µL/min
STUDY CONDITIONS: column: Zorbax Extend-C18 2.1 x 50 mm; eluents: water / acetonitrile, 0.1% formic acid
RP-LC retention time class ranges: band A: < 700 s; band B: ≥ 700 s and < 900 s; band C: ≥ 900 s

Worked examples follow.
# COMPOUND, ASSIGNED LABEL
measured = [
    ("CCN1C(=O)COc2ccc(-c3noc(CNC(=O)c4ccccc4)n3)cc21", "band B"),
    ("Cc1nc(C2(C)CCN(C(=O)CCc3cc(Cl)no3)CC2)no1", "band B"),
    ("COc1cccc(CN2C[C@@H]3C(=O)N(Cc4ccc5c(c4)OCO5)C(=O)[C@@H]3C2)c1", "band B"),
    ("CNC(=O)Cc1csc(-c2ccccc2F)n1", "band B"),
    ("COc1ccc(C(=O)N2CCC(COc3ccc(C(=O)NC4CC4)cc3)CC2)cc1F", "band B"),
]

## Input Given O=C(NC1CC1)c1cc(=O)[nH]c2ccccc12 , name the class its RP-LC retention time places it in.
## Output band A

## Input Given Cn1nccc1-c1nc(-c2ccc3oc(-c4ccccc4)nc3c2)no1 , name the class its RP-LC retention time places it in.
## Output band C

## Input Given O=C(CCSc1ccccc1)N1CC(c2nc(-c3cccc(Cl)c3)no2)C1 , name the class its RP-LC retention time places it in.
## Output band C

## Input Given CC(C)N1C(=O)C(C)(C(=O)NCc2cccc(Br)c2)Oc2cccnc21 (stereo not given) , name the class its RP-LC retention time places it in.
## Output band C

## Input Given Cn1c(=O)n([C@H]2CCN(C(=O)c3ccc(Cn4ccnc4)o3)C2)c2ncccc21 , name the class its RP-LC retention time places it in.
## Output band A

## Input Given O=C(CN1C(=O)C2CCCCN2C(=O)c2ccccc21)NCCN1CCCCCC1 (stereo not given) , name the class its RP-LC retention time places it in.
## Output band A

## Input Given CCOC(=O)C1CCCN(S(=O)(=O)c2cccs2)C1 (stereo not given) , name the class its RP-LC retention time places it in.
## Output band B

## Input Given O=S(=O)(c1ccc(-c2cnc(C3CCC3)o2)s1)N1CCN(c2ccccn2)CC1 , name the class its RP-LC retention time places it in.
## Output band B

----------
TEST SUMMARY: gradient 5% acetonitrile 3 min, to 50% in 2 min, to 85% in 15 min, held 3 min, 100 µL/min
STUDY CONDITIONS: column: Zorbax Extend-C18 2.1 x 50 mm; eluents: water / acetonitrile, 0.1% formic acid
ENDPOINT LABEL: RP-LC retention time (s)
Could you give me the number in s? Just the number is fine.

# SMILES INPUT, U, RP-LC retention time
data = [
    ("O=c1c2sccc2n(Cc2nc(-c3cccc(Br)c3)no2)c(=O)n1Cc1ccccc1", "s", 1110),
    ("O=C(c1ccc2c(c1)OCO2)N1CCN(c2cc(-c3ccc(Cl)cc3)[nH]n2)CC1", "s", 836),
    ("COc1ccccc1CNc1nccc(-n2nc(C)cc2C)n1", "s", 840),
    ("Cc1nn(CCCC(=O)N2CCOCC2)c(=O)c2nn(-c3ccccc3)c(C)c12", "s", 673),
]

In the following, a different molecule is considered.
## Input Which RP-LC retention time value is on record for O=C(c1ccoc1)N1CCC2(CC1)N=C(c1cccc(Br)c1)NO2 ?
## Output 763

----------
// values below are reported RP-LC retention time
TEST SUMMARY: gradient 5% acetonitrile 3 min, to 50% in 2 min, to 85% in 15 min, held 3 min, 100 µL/min
STUDY CONDITIONS: column: Zorbax Extend-C18 2.1 x 50 mm; eluents: water / acetonitrile, 0.1% formic acid
Answer format reminder: number followed by unit.

Solved entries:
# MOLECULE, ENDPOINT LABEL, RESULT
records = [
    ("CC(C)(C)c1ccc(C(=O)Nc2cc(-c3ccccn3)no2)cc1", "RP-LC retention time", "1020 s"),
    ("Cc1ccccc1Oc1nccnc1N1CCCC(C(=O)NC2CCCCCC2)C1 (stereo not given)", "RP-LC retention time", "1120 s"),
    ("CN(C)c1cnc(-n2cc(NC(=O)c3cccc(N(C)C)c3)cn2)nc1", "RP-LC retention time", "672 s"),
    ("CCn1c(C(=O)NCc2ccccc2OC)cc2sccc21", "RP-LC retention time", "1010 s"),
    ("O=C(Nc1cnc(N2CCCC2)nc1)c1ccc(Br)cc1", "RP-LC retention time", "796 s"),
    ("CCN1C(=O)C2(CCN(C(=O)C3CCCCC3)CC2)c2ccccc21", "RP-LC retention time", "950 s"),
    ("CCOc1ccc(NC(=O)Cn2c(=O)nc(N3CCC(C)CC3)c3ccccc32)cc1", "RP-LC retention time", "845 s"),
    ("COc1ccc(S(=O)(=O)N2CCN(c3cc(C)c4ccccc4n3)CC2)cc1", "RP-LC retention time", "701 s"),
]

## Input Which RP-LC retention time value is on record for Cc1ccc(C)c(NC(=O)C(=O)NCC(c2ccc3c(c2)OCO3)N2CCOCC2)c1 (stereo not given) ?
## Output 693 s

## Input Which RP-LC retention time value is on record for CCOC(=O)N1CCN(S(=O)(=O)c2ccc(C(=O)Nc3cc(C)nn3C)cc2)CC1 ?
## Output 687 s

----------
TEST SUMMARY: gradient 5% acetonitrile 3 min, to 50% in 2 min, to 85% in 15 min, held 3 min, 100 µL/min
STUDY CONDITIONS: column: Zorbax Extend-C18 2.1 x 50 mm; eluents: water / acetonitrile, 0.1% formic acid
ENDPOINT LABEL: RP-LC retention time (s)
Could you give me the number in s? Just the number is fine.

Solved entries:
# COMPOUND, U, RP-LC retention time
rows = [
    ("Cn1cc(CN2CCC(C(=O)NC3CCN(Cc4ccccc4)CC3)CC2)c2cc(Cl)ccc21", "s", 593),
    ("CC(=O)Nc1ccc2c(c1)CN(C(=O)c1ccc(C#N)cc1)C(C(=O)N(C)C)C2 (stereo not drawn)", "s", 619),
    ("COC(=O)c1cc(C)nc2c1c(=O)n(Cc1cccc(F)c1)c(=O)n2Cc1ccco1", "s", 1100),
]

## Input Which RP-LC retention time value is on record for CCCn1ccc2oc(C)c(C(=O)NCc3ccc(C(C)C)cc3)c2c1=O ?
## Output 786

## Input Which RP-LC retention time value is on record for CC(C)n1nc(CNC(=O)c2cccs2)c2ccccc21 ?
## Output 845

## Input Which RP-LC retention time value is on record for CC(C)(C)c1noc(-c2ccnc(-n3cnc(C(=O)NC4CCCCC4)c3)c2)n1 ?
## Output 1100

## Input Which RP-LC retention time value is on record for COc1cccc(-c2nc(-c3ccc(S(=O)(=O)N4CCCCC4)cc3)no2)c1 ?
## Output 1270

## Input Which RP-LC retention time value is on record for O=C(COc1ccccc1)NCCS(=O)(=O)N1CCN(c2cccc(Cl)c2)CC1 ?
## Output 926

## Input Which RP-LC retention time value is on record for Cc1ccc(-n2nc(N3CCCC(C(=O)NCc4ccc(OC(C)C)cc4)C3)ccc2=O)cc1Cl (stereo not drawn) ?
## Output 999

## Input Which RP-LC retention time value is on record for Cc1cc(N2CCN(C(=O)COc3ccc(Cl)cc3)CC2)nc2nncn12 ?
## Output 629

## Input Which RP-LC retention time value is on record for COC(=O)c1c(NCCc2ccccc2)c2cc(F)ccc2[nH]c1=O ?
## Output 791

## Input Which RP-LC retention time value is on record for Cc1ccc(NC(=O)N2CCC(C(C)C(=O)Nc3ccc(C)c(C)c3)CC2)cc1 (stereo not drawn) ?
## Output 932

## Input Which RP-LC retention time value is on record for CC(CCNc1ccc(-c2nc(-c3ccc(F)cc3)no2)cn1)N1CCCCCC1 (stereo not drawn) ?
## Output 768

## Input Which RP-LC retention time value is on record for CSc1ccc(-c2nc3nc(C)cc(C)n3c2Nc2ccc(C(C)C)cc2)cc1 ?
## Output 943

## Input Which RP-LC retention time value is on record for CC1CCN(CC2CCCN(C(=O)C3(c4ccccc4)CC3)CC2)CC1 (stereo not drawn) ?
## Output 660

## Input Which RP-LC retention time value is on record for COc1ccc(-n2c(=O)c3sccc3n(Cc3nc(-c4ccc(F)c(Cl)c4)no3)c2=O)cc1 ?
## Output 1040

## Input Which RP-LC retention time value is on record for Cc1nc(CC(=O)NC2CCCC2)sc1C(=O)NCc1ccccc1 ?
## Output 734

## Input Which RP-LC retention time value is on record for Cc1ccc(CNS(=O)(=O)c2cc3n(c2)CCCN(C)C3=O)cc1 ?
## Output 711

## Input Which RP-LC retention time value is on record for O=C(Cn1c(=O)n(C2CCCCC2)c2ncccc21)NCCCN1CCOCC1 ?
## Output 612

## Input Which RP-LC retention time value is on record for O=C(NCc1cccs1)c1nnc(-c2ccc(S(=O)(=O)N3CCCC3)cc2)o1 ?
## Output 849

## Input Which RP-LC retention time value is on record for COc1cccc(N2CCN(C(=O)C3CCCN(c4nc5ncccc5n5cccc45)C3)CC2)c1 (stereo not drawn) ?
## Output 696

## Input Which RP-LC retention time value is on record for Cc1noc(/C=C\c2ccc(S(=O)(=O)NC3CC3)cc2)c1NC(=O)C1CC1 ?
## Output 766
